- methodDescription: IV pharmacokinetics
- Format: in vivo, Sprague Dawley rats
- measurementParameters: rat, 2 mg/kg, normal saline
The following molecules are listed with their measured CI values.
measurementLabel: CI (mL/min/kg)

* COc1ccc(CN2CC3(CCNC(=O)C3)C2=O)cc1 (racemic) | 5.28
* CCN1CCC2(CC1=O)CN(Cc1ccc(OC)cc1)C2=O (single isomer, unassigned) | 41.73
* COc1ccc(CN2CC3(CCN(C)C(=O)C3)C2=O)cc1 (single isomer, unassigned) | 32

###

The following compounds are listed with their measured CI values.
- methodDescription: IV pharmacokinetics
- Format: in vivo, Sprague Dawley rats
- measurementParameters: rat, 2 mg/kg, normal saline
measurementLabel: CI (mL/min/kg)

- COc1ccc(CN2C[C@]3(CCNC(=O)C3)C2=O)cc1: 9.69
- C[C@@H](O)[C@@H](C(=O)NCc1ccccc1)N1CC2(CCNC(=O)C2)C1=O (single isomer, unassigned): 25.31
- C[C@@H](O)[C@@H](C(=O)N(C)C)N1CC2(CCNC(=O)C2)C1=O (single isomer, unassigned): 15.65
- COc1ccc(CN2C[C@@]3(CCNC(=O)C3)C2=O)cc1: 9.82
